Would you mind telling me the reported protein stability index of each entry?
System: Saccharomyces cerevisiae;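 further: PSI is a weighted mean of sequencing reads over stability bins, variants kept only with over 10 reads, mCherry proximal and sfGFP distal, peptide attached via GGGS linker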
procedure.details: protein stability index of tFT-peptide fusion (C-terminal peptide) (PSI (0-1 scale)); higher = more stable (slower turnover)
condition.summary: genetic background: wild type; temperature: 30 C
Note: the reply should be a number with no unit written.

Which protein stability index value is on record for KRKRKKKSEKEE ?
0.652

Which value of protein stability index has been reported for VSEGFVLGGSCG in the records?
0.663

Using the record for LLGRRSHTPDEP , report its protein stability index.
0.723

Quick one: protein stability index of LGCLVWGGVWGV ?
0.479

Param item = ISVSRLRMKDRN ; retrieve measured protein stability index.
0.713

Which protein stability index is reported for this sequence? FFSFTVLVSYGF
0.352

Recorded protein stability index for VPSPPCPPHLPI , please?
0.655

Field request: protein stability index | item: VGGAWRMGRGGG
0.658

What value of protein stability index has been recorded for this entry: LPPPHYPHHTAS
0.679

Entry PPSPSPPPPPPT : reported protein stability index = ?
0.648

What protein stability index value was documented for this sequence, LPPAAPPPPIPA ?
0.599

Any idea what its protein stability index is? The sequence is VRVCGPSCFRPG
0.628

Could you share which protein stability index value was measured for PSPPTSLPPTDA ?
0.706

Which protein stability index reading was recorded for the sequence QDLDTALLLHAF ?
0.657

May I ask what protein stability index has been recorded for ARPPPPPRSSPL ?
0.747

Given the entry FPPPPPPLPPGS , report its measured protein stability index.
0.687

# get_value(readout='protein stability index', item= PPPSTGGTRSNV )
0.681

Please look up its protein stability index: WFLFVLCAWGFF
0.135

Given TRSNEERKGKKS , state its recorded protein stability index.
0.731
